The values you see were collected from patent US9505753B2.

Molecular target: human recombinant D-amino acid oxidase (Homo sapiens (Human), UniProt P14920)
Sequence (P14920 whole entry): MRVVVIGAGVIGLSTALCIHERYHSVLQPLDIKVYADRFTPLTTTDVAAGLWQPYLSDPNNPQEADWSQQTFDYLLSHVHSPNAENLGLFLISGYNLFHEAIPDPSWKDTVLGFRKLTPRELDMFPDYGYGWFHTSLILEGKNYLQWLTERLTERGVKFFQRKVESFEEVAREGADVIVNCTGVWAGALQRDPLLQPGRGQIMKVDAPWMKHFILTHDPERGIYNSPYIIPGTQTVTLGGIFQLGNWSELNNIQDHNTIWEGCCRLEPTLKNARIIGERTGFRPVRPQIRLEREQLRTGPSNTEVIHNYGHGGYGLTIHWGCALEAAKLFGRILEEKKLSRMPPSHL
Experiment: In vitro D-amino acid oxidase (DAAO) assay, 96-well plate
Format: biochemical
Details: human recombinant DAAO; D-serine 5 mM, FAD 1 μM, 20 min, room temperature, Tris buffer pH 8.5; read-out: Inhibition of DAAO IC50
pIC50: −log10 of the molar value.
Assign Condition met to entries whose pIC50 meets or exceeds 7; assign Condition not met to the rest.

>>> df
                                    molecule        label_value
 0  O=c1[nH]c(=O)n(CCc2cccc(Oc3ccccc3)c2)nc1O  Condition not met
 1        O=c1[nH]c(=O)n(CCc2ccc(Cl)cc2)nc1O      Condition met
 2     O=c1[nH]c(=O)n(CCc2ccc(F)c(Cl)c2)nc1O      Condition met
 3          COc1ccccc1CCn1nc(O)c(=O)[nH]c1=O  Condition not met
 4         O=c1[nH]c(=O)n(CCc2ccc(F)cc2)nc1O      Condition met
 5  O=c1[nH]c(=O)n(CCN2CCOCC2)nc1O [Compound 10j]  Condition not met
 6  O=c1[nH]c(=O)n(Cc2cccc3cc(Br)ccc23)nc1O [Compound 25d]      Condition met
 7  O=c1[nH]c(=O)n(CCc2ccc(-c3ccccc3)cc2)nc1O      Condition met
 8  O=c1[nH]c(=O)n(CCn2ncc3ccccc32)nc1O [Compound 10h]  Condition not met
 9  CN(C)CCn1nc(O)c(=O)[nH]c1=O [Compound 12a]  Condition not met
10  O=c1[nH]c(=O)n(CCn2c3ccccc3c3ccccc32)nc1O [Compound 10i]  Condition not met
11             O=c1[nH]c(=O)n(Cc2ccccc2)nc1O  Condition not met
12  O=c1[nH]c(=O)n(CCN2CCN(c3ccccc3F)CC2)nc1O [Compound 12c]  Condition not met
13  O=c1[nH]c(=O)n(CCn2cccn2)nc1O [Compound 10d]  Condition not met
14  O=c1[nH]c(=O)n(C[C@@H]2C[C@H]2c2ccccc2)nc1O [Compound 10n]  Condition not met
15  O=c1[nH]c(=O)n(Cc2ccc(-c3ccccc3)cc2)nc1O  Condition not met
16            O=c1[nH]c(=S)n(CCc2ccccc2)nc1O      Condition met
17  O=c1[nH]c(=O)n(CC(O)c2ccccc2)nc1O (centres unmarked)  Condition not met
18  O=c1[nH]c(=O)n(CCN2CCc3ccccc3C2)nc1O [Compound 12d]  Condition not met
19           O=c1[nH]c(=O)n(CCc2ccccc2O)nc1O      Condition met
20  O=c1[nH]c(=O)n(Cc2cccc3ccsc23)nc1O [Compound 10q]  Condition not met
21  O=c1[nH]c(=O)n(CCn2cnc3ccccc32)nc1O [Compound 10f]  Condition not met
22                     Cn1nc(O)c(=O)[nH]c1=O  Condition not met
23  CC(Cc1ccccc1)n1nc(O)c(=O)[nH]c1=O (centres unmarked) [Compound 10k]  Condition not met
24           O=c1[nH]c(=O)n(CCCc2ccccc2)nc1O  Condition not met
25           Cc1ccccc1CCn1nc(O)c(=O)[nH]c1=O      Condition met
26               CC(C)CCn1nc(O)c(=O)[nH]c1=O  Condition not met
27    O=c1[nH]c(=O)n(CCc2ccc(Cl)c(Cl)c2)nc1O      Condition met
28  O=c1[nH]c(=O)n(CCn2ccc3cccnc32)nc1O [Compound 10g]  Condition not met
29       O=c1[nH]c(=O)n(Cc2cccc3ccccc23)nc1O      Condition met
30  O=c1[nH]c(=O)n(CCc2cc(F)cc(F)c2)nc1O [Compound 10r]  Condition not met

---

Target: human recombinant D-amino acid oxidase (Homo sapiens (Human), UniProt P14920)
Assay: In vitro D-amino acid oxidase (DAAO) assay, 96-well plate
Format: biochemical
Settings: read-out: Inhibition of DAAO IC50
Method: A reliable 96-well plate D-amino acid oxidase (DAAO) assay was developed based on previously published reports (J. Biol. Chem. 277: 27782 (2002)). […] All reactions were carried out for 20 min at room temperature in a 100-μL volume in Tris buffer (50 mM, pH 8.5). Additionally, stock solutions and serial dilutions of potential DAO inhibitors were made in 10:90 DMSO:buffer with a final assay DMSO concentration of 1%.
pIC50: −log10 of the molar value.
property: pIC50

                                   compound                        measurement_target  recorded_measurement
0  COc1ccc(CCn2nc(O)c(=O)[nH]c2=O)cc1 [Compound 5x]  human recombinant D-amino acid oxidase (Homo sapiens (Human), UniProt P14920)                  7.00

---

Readings of log10(IC50) for the listed molecules
Target: human recombinant D-amino acid oxidase (Homo sapiens (Human), UniProt P14920)
Test: In vitro D-amino acid oxidase (DAAO) assay, 96-well plate
Assay type: biochemical
Details: human recombinant DAAO; D-serine 5 mM, FAD 1 μM, 20 min, room temperature, Tris buffer pH 8.5; read-out: Inhibition of DAAO IC50
property: log10(IC50) (log10 of the value in nM)

                                    molecule  recorded_measurement
 0  O=c1[nH]c(=O)n(CCn2ccc3ccccc32)nc1O [Compound 10e]                  2.00
 1  O=c1[nH]c(=O)n(Cc2ccc(F)c3ccccc23)nc1O [Compound 25b]                  2.30
 2  O=c1[nH]c(=O)n(Cc2cccc3[nH]ccc23)nc1O [Compound 10o]                  2.30
 3  O=c1[nH]c(=O)n(CCc2ccccn2)nc1O [Compound 10l]                  2.95
 4         O=c1[nH]c(=O)n(CCc2cccc(F)c2)nc1O                  1.78
 5  O=c1[nH]c(=O)n(CCc2ccc(F)c(F)c2)nc1O [Compound 10b]                  1.60
 6      O=c1[nH]c(=O)n(CCc2ccc(Cl)cc2Cl)nc1O                  1.90
 7       O=c1[nH]c(=O)n(Cc2ccc3ccccc3c2)nc1O                  1.48
 8         Cc1cccc(CCn2nc(O)c(=O)[nH]c2=O)c1                  1.78
 9  O=c1[nH]c(=O)n(Cc2cccc3cnccc23)nc1O [Compound 10p]                  2.48
10  O=c1[nH]c(=O)n(Cc2cccc3cccnc23)nc1O [Compound 25a]                  3.48
11         O=c1[nH]c(=O)n(CCc2cccc(O)c2)nc1O                  2.00
12  O=c1[nH]c(=O)n(Cc2ccc(Oc3ccccc3F)cc2)nc1O                  2.48
13          O=c1[nH]c(=O)n(CCc2ccccc2Cl)nc1O                  2.00
14  Cc1ccc(Cn2nc(O)c(=O)[nH]c2=O)c2ccccc12 [Compound 25c]                  3.00
15  CC(C)N1CCN(CCn2nc(O)c(=O)[nH]c2=O)CC1 [Compound 12b]                  3.95
16        O=c1[nH]c(=O)n(CCc2cccc(Cl)c2)nc1O                  1.78
17        COc1cccc(CCn2nc(O)c(=O)[nH]c2=O)c1                  2.00
18  O=c1[nH]c(=O)n(CC(F)(F)c2ccccc2)nc1O [Compound 10a]                  2.60
19            CC(C)(C)CCn1nc(O)c(=O)[nH]c1=O                  4.60
20         O=c1[nH]c(=O)n(CCc2ccc(O)cc2)nc1O                  2.00
21        O=C(Cn1nc(O)c(=O)[nH]c1=O)c1ccccc1                  3.00

---

Biological target: Porcine DAAO (Sus scrofa (Pig))
Sequence (P00371 whole entry): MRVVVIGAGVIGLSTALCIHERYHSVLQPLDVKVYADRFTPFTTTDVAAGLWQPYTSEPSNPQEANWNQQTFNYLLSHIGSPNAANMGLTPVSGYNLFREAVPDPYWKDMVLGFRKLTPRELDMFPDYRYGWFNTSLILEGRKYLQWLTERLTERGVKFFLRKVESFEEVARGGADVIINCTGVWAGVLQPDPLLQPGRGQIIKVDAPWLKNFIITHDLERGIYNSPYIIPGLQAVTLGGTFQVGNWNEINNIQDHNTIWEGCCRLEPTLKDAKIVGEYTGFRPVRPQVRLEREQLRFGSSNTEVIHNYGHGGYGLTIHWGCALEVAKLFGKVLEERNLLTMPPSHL
property: IC50 (µM)

In [3]: df
Out[3]:
                                   compound  property  recorded_measurement
0  Cc1ccc2ccccc2c1Cn1nc(O)c(=O)[nH]c1=O [Compound 10u]      IC50                   0.6
1  CCOc1ccc(CCn2nc(O)c(=O)[nH]c2=O)cc1 [Compound 10t]      IC50                   0.3
2  O=c1[nH]c(=O)n(CCc2ccc(N3CCOCC3)cc2)nc1O [Compound 32]      IC50                     1
